Cited source for all entries: the supplement of paper PMC8728848

ASSAY_SYSTEM: GalNAc(b1-3)Gal(a1-4)Gal(b1-4)GlcNAc
ASSAY_PROTOCOL: glycan array binding signal (z-score within array); higher = stronger binding
TEST_PARAMETERS: glycan notation: IUPAC condensed, linker removed
About 410 targets per protein were measured; listed, in parts, are those with the strongest signals and a random draw of the rest.
Response key: TRUE means glycan array binding signal (z-score) >= 0.6; FALSE means glycan array binding signal (z-score) < 0.6.

Task: Assess whether reported glycan array binding signal (z-score) for Epa19 (Candida glabrata) (protein) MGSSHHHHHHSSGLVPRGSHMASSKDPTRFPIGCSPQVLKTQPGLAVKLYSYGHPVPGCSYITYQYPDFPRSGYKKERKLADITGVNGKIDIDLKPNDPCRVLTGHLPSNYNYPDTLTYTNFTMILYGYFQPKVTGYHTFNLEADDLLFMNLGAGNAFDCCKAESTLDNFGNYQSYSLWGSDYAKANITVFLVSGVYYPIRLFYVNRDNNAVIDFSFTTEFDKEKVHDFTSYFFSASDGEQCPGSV sits at 0.6 or higher.
Result: FALSE

Task: Assess whether reported glycan array binding signal (z-score) for SJCP1084 (Schistosoma japonicum) (protein) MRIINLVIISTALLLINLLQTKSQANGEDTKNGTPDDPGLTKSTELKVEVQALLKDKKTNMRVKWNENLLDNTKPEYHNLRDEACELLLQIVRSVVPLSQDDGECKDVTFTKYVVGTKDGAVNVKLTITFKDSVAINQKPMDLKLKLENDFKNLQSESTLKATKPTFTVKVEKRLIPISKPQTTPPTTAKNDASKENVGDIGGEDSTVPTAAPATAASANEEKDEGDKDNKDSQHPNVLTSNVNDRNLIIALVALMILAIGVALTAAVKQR sits at 0.6 or higher.
Result: TRUE

Task: Assess whether reported glycan array binding signal (z-score) for Epa6 (Candida glabrata), Q6DTM7_CANGB (protein) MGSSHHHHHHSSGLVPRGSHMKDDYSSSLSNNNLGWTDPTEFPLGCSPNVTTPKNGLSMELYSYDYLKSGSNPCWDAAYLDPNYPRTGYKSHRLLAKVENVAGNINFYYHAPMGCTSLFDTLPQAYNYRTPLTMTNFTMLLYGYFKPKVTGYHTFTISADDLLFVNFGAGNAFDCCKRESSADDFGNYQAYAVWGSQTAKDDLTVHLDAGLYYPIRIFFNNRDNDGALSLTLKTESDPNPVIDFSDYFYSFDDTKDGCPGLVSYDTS sits at 0.6 or higher.
Result: FALSE

Task: Assess whether reported glycan array binding signal (z-score) for Epa15 (Candida glabrata) (protein) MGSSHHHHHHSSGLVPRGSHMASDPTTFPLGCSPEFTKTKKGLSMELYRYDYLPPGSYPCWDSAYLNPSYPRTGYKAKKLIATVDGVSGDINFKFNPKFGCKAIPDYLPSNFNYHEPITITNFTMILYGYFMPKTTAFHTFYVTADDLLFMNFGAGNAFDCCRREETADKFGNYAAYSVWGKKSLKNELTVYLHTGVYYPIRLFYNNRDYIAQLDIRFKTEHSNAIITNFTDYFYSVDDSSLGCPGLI sits at 0.6 or higher.
Result: TRUE

Task: Assess whether reported glycan array binding signal (z-score) for Epa7 (Candida glabrata), Q6DTM6_CANGB (protein) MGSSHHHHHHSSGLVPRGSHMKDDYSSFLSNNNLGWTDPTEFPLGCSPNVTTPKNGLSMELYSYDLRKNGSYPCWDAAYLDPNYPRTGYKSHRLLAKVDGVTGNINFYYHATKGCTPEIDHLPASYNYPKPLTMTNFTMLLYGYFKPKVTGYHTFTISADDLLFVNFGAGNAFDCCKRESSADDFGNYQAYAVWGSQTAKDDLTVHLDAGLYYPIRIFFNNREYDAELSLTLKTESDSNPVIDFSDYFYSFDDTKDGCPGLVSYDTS sits at 0.6 or higher.
Result: FALSE

Task: Assess whether reported glycan array binding signal (z-score) for SSA (Sclerotinia sclerotiorum), A7XUK7 (protein) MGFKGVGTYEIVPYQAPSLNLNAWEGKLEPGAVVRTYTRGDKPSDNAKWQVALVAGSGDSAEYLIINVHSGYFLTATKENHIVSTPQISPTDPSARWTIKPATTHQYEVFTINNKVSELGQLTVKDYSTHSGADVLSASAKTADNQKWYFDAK sits at 0.6 or higher.
Result: TRUE
